The measured values listed here are drawn from PubChem BioAssay AID1203.

# assayDetails: Hsp70 promoter-driven reporter induction – cell-based, HeLa, Hsp70 promoter luciferase, luminescence, 10 µM, primary screen (AID 1203);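 also: 100% = MG132 at 30 µM as the positive control and 0% = DMSO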
# assayConditions: at 10 µM, hits give high values, scaled: vehicle 0, proteasome-inhibitor control 100%
About 80 (0.04%) of roughly 200,000 compounds were called active. The full list was thinned out, with actives kept by preference.
testReadout: activation (%)

compound="OCCC1CN(Cc2ccccc2-c2ccco2)CCN1Cc1ccsc1 (centres undefined)" testreadout=activation scaleunit=% resultnumber=-0.08
compound=CCn1cc(C(=O)Nc2cc(C)ccc2C)c(=O)c2ccc(C)nc21 testreadout=activation scaleunit=% resultnumber=-0.16
compound=O=C(Nc1cccc(Cl)c1)Nc1ccccc1NS(=O)(=O)c1cccs1 testreadout=activation scaleunit=% resultnumber=-0.23
compound=CCOc1ccc(-c2n[nH]c(C)c2-c2ccccn2)c(O)c1 testreadout=activation scaleunit=% resultnumber=-0.39
compound=O=Cc1cn(Cc2ccccc2)nc1-c1cccnc1 testreadout=activation scaleunit=% resultnumber=-0.04
compound=CC[C@H]1OC(=O)[C@H](C)[C@@H](O[C@H]2C[C@@](C)(OC)[C@@H](O)[C@H](C)O2)[C@H](C)[C@@H](O[C@@H]2O[C@H](C)C[C@H](N(C)C)[C@H]2O)[C@](C)(O)C[C@@H](C)[C@@H]2N[C@@H](COCCOC)O[C@H]([C@H]2C)[C@]1(C)O testreadout=activation scaleunit=% resultnumber=-0.19
compound=N#C/C(=C/c1ccc(N2CCOCC2)o1)C(=O)N1CCOCC1 testreadout=activation scaleunit=% resultnumber=-0.09
compound="CCOCCCNC(=O)C(NC(=O)c1ccccc1O)c1ccccc1 (centres undefined)" testreadout=activation scaleunit=% resultnumber=-0.12
compound=CC(C)NC(=O)NC(=O)CSc1nnc(-c2ccccc2F)n1N testreadout=activation scaleunit=% resultnumber=0.03
compound=O=C1Oc2ccccc2C(=O)/C1=C/c1ccccc1O testreadout=activation scaleunit=% resultnumber=-0.37
compound=CN1CCN(c2nc(Nc3ccc(O)cc3)nc3ccccc23)CC1 testreadout=activation scaleunit=% resultnumber=-0.02
compound=O=C(COc1ccc(Cl)cc1[N+](=O)[O-])N1CCCCC1 testreadout=activation scaleunit=% resultnumber=0.04
compound="Cc1ccc(CN2CCN(Cc3ccc4ncccc4c3)CC2CCO)cc1 (centres undefined)" testreadout=activation scaleunit=% resultnumber=-0.4
compound=C/C(=N/OC(=O)c1c(-c2c(F)cccc2Cl)noc1C)c1cnccn1 testreadout=activation scaleunit=% resultnumber=-0.36
compound=Cn1nc(C(F)(F)F)c2cc(C(=O)N3CCOCC3)sc21 testreadout=activation scaleunit=% resultnumber=0.19
compound=Cc1nc(S(=O)(=O)c2ccc(Br)cc2)nc2c1CCC2 testreadout=activation scaleunit=% resultnumber=-0.24
compound=COCCNC(=S)N(Cc1cccnc1)Cc1ccc(OC)c(OC)c1 testreadout=activation scaleunit=% resultnumber=-0.35
compound=c1ccc(-n2nnnc2NC2CCCCCC2)cc1 testreadout=activation scaleunit=% resultnumber=-0.52
compound="CC(=O)c1ccc(NC(=O)C(C)N(C)CC(=O)Nc2ccccc2Cl)cc1 (centres undefined)" testreadout=activation scaleunit=% resultnumber=-0.06
compound=CCOC(=O)CSc1ccccn1 testreadout=activation scaleunit=% resultnumber=2.15
compound=Cc1cccc(C)c1NC(=S)N(Cc1cccnc1)Cc1ccccc1Cl testreadout=activation scaleunit=% resultnumber=-0.11
compound=CCSC1=NCCN1S(=O)(=O)c1ccc(F)cc1 testreadout=activation scaleunit=% resultnumber=-0.26
compound="CCCC(C)C(=O)NCc1ccncc1 (centres undefined)" testreadout=activation scaleunit=% resultnumber=0.15
compound=NNC(=O)c1cnn(-c2ccccc2)c1C(F)(F)F testreadout=activation scaleunit=% resultnumber=0.08
compound=Cc1cccc(NC(=S)Nc2ccc3cn[nH]c3c2)c1 testreadout=activation scaleunit=% resultnumber=-0.39
compound=Cc1cc(C)n(CC(=O)Nc2ccc([N+](=O)[O-])cc2)n1 testreadout=activation scaleunit=% resultnumber=-0.28
compound="OCCC1CN(Cc2cccc(O)c2)CCN1CCc1ccccc1 (centres undefined)" testreadout=activation scaleunit=% resultnumber=0.03
compound=O=C(CO/N=C/c1ccc(OC(F)F)cc1)NCc1ccc(F)cc1 testreadout=activation scaleunit=% resultnumber=0.12
compound="O=C(CC1C(=O)NCCN1Cc1ccc(-c2ccccc2)cc1)NCc1ccncc1 (centres undefined)" testreadout=activation scaleunit=% resultnumber=-0.07
compound=CCC(=O)NC(Nc1cc(C)ccn1)(C(F)(F)F)C(F)(F)F testreadout=activation scaleunit=% resultnumber=-0.11
compound=Cc1cc(C)c2[nH]c(=O)c(CN(Cc3ccccc3)C(=S)NCCCN(C)C)cc2c1 testreadout=activation scaleunit=% resultnumber=-0.22
compound=CN1CCN(C(=O)CCc2nc(-c3ccc(Cl)cc3)no2)CC1 testreadout=activation scaleunit=% resultnumber=-0.33
compound=O=C(Nc1ccccc1F)c1ccccc1-c1ccc(C(F)(F)F)cc1 testreadout=activation scaleunit=% resultnumber=-0.36
compound="CCOc1ccc(NC(=O)C2CC(=O)N=C(N)S2)cc1 (centres undefined)" testreadout=activation scaleunit=% resultnumber=-0.33
compound=Cc1ccc(C)c(-n2cc(CN3CCN(C(=O)c4ncn[nH]4)CC3)c(-c3ccccc3)n2)c1 testreadout=activation scaleunit=% resultnumber=-0.1
compound="COc1cccc(CNC(=O)CCC2CCCN(C(=O)c3ccoc3C)C2)c1 (centres undefined)" testreadout=activation scaleunit=% resultnumber=-0.21
compound=C/C(CC(=O)N1CCN(C=O)CC1)=N\NC(=O)c1ccc(Br)cc1 testreadout=activation scaleunit=% resultnumber=-0.22
compound="O=C(CN1C(=O)NC2(CCCC2)C1=O)NCC1CCCO1 (centres undefined)" testreadout=activation scaleunit=% resultnumber=0.18
compound=Cc1cccc(NC(=O)Cn2c(=O)n(Cc3ccccc3)c(=O)c3c(C)c(C)sc32)c1 testreadout=activation scaleunit=% resultnumber=-0.2
compound=Cc1ccc(N(Cc2cc3ccccc3[nH]c2=O)C(=O)c2cccs2)cc1 testreadout=activation scaleunit=% resultnumber=-0.18
compound=O=[N+]([O-])c1cccc(C2=NCCS2)c1 testreadout=activation scaleunit=% resultnumber=-0.29
compound=Cc1cc(C(=O)NNC(=O)c2cccc(S(=O)(=O)N3CCOCC3)c2)c2ccccc2n1 testreadout=activation scaleunit=% resultnumber=-0.21
compound=Cc1ccc(C(=O)NCC(=O)O)s1 testreadout=activation scaleunit=% resultnumber=0.11
compound=COc1ccc(NC(=O)/C(C#N)=C\c2cc(OC)c(OCc3ccc(C(=O)O)cc3)cc2Br)cc1 testreadout=activation scaleunit=% resultnumber=-0.51
